test: Selectivity index, ratio of IC50 for cytotoxicity against rat myoblast L6 cells to IC50 for antiprotozoal activity against Trypanosoma cruzi Tulahuen C2C4 intracellular amastigotes; type: toxicity, cell-based; conditions: read-out: Selectivity Index
Decide by selectivity ratio: equal to or exceeding 2 means Satisfied, less means Not satisfied.

>  <MOLECULE>
CC(C)C1=C2OC(C)(C)[C@@H]3CC4[C@H](C)[C@@H](OC(=O)CCC(=O)O)C[C@@]5(CC[C@H]6C(C)(C)CCC[C@]67C[C@]45[C@@]23O7)C1=O (some centres not stated)

>  <ASSIGNED CATEGORY>
Not satisfied

$$$$
>  <MOLECULE>
CC(C)C1=C2OC(C)(C)[C@@H]3CC4[C@@H](C)[C@H](O)C[C@@]5(CC[C@H]6C(C)(C)CCC[C@]67C[C@]45[C@@]23O7)C1=O (some centres not stated)

>  <ASSIGNED CATEGORY>
Not satisfied

$$$$
>  <MOLECULE>
CC1=CC[C@]23CC[C@H]4C(C)(C)CCC[C@]45C[C@]24C1=C[C@H]1C(C)(C)OC(=C(C(C)C)C3=O)[C@@]14O5

>  <ASSIGNED CATEGORY>
Not satisfied

$$$$
>  <MOLECULE>
CC1=C2C[C@H]3C(C)(C)OC4=C(C(C)C)C(=O)[C@@]5(C=C1)CC[C@H]1C(C)(C)CCC[C@]16C[C@]25[C@@]43O6

>  <ASSIGNED CATEGORY>
Satisfied

$$$$
>  <MOLECULE>
CC(C)C1=C2OC(C)(C)[C@@H]3CC4[C@@H](C)[C@H](B(F)F)C[C@@]5(CC[C@H]6C(C)(C)CCC[C@]67C[C@]45[C@@]23O7)C1=O (some centres not stated)

>  <ASSIGNED CATEGORY>
Satisfied

$$$$

Reported selectivity ratio at or above 2? CC(C)C1=C2OC(C)(C)[C@@H]3CC4[C@H](C)[C@@H](O)C[C@@]5(CC[C@H]6C(C)(C)CCC[C@]67C[C@]45[C@@]23O7)C1=O (some centres not stated)
Satisfied

Reported selectivity ratio at or above 2? "CC1=CC[C@]23CC[C@H]4C(C)(C)CCC[C@]45C[C@]24[C@@]1(O)C[C@H]1C(C)(C)OC(=C(C(C)C)C3=O)[C@@]14O5"
Not satisfied

###

system: Trypanosoma brucei rhodesiense; test: Antiprotozoal activity against Trypanosoma brucei rhodesiense STIB900 trypomastigotes measured after 72 to 74 hrs; assay type: functional, organism-based
For each record, write down the corresponding IC50.
One number for each entry, in µM.

Quick batch: IC50 for everything below.
1. CC1=C2C[C@H]3C(C)(C)OC4=C(C(C)C)C(=O)[C@@]5(C=C1)CC[C@H]1C(C)(C)CCC[C@]16C[C@]25[C@@]43O6
2. CC1=CC[C@]23CC[C@H]4C(C)(C)CCC[C@]45C[C@]24[C@@]1(O)C[C@H]1C(C)(C)OC(=C(C(C)C)C3=O)[C@@]14O5
3. CC(C)C1=C2OC(C)(C)[C@@H]3CC4[C@@H](C)[C@H](B(F)F)C[C@@]5(CC[C@H]6C(C)(C)CCC[C@]67C[C@]45[C@@]23O7)C1=O (some centres not stated)
4. CC1=CC[C@]23CC[C@H]4C(C)(C)CCC[C@]45C[C@]24C1=C[C@H]1C(C)(C)OC(=C(C(C)C)C3=O)[C@@]14O5
5. CC(C)C1=C2OC(C)(C)[C@@H]3CC4[C@H](C)[C@@H](OC(=O)CCC(=O)O)C[C@@]5(CC[C@H]6C(C)(C)CCC[C@]67C[C@]45[C@@]23O7)C1=O (some centres not stated)
6. CC(C)C1=C2OC(C)(C)[C@@H]3CC4[C@@H](C)[C@H](O)C[C@@]5(CC[C@H]6C(C)(C)CCC[C@]67C[C@]45[C@@]23O7)C1=O (some centres not stated)
7. CC(C)C1=C2OC(C)(C)[C@@H]3CC4[C@H](C)[C@@H](O)C[C@@]5(CC[C@H]6C(C)(C)CCC[C@]67C[C@]45[C@@]23O7)C1=O (some centres not stated)

1. 58.6
2. 10.1
3. 24.4
4. 32.1
5. 24.4
6. 39
7. 25.8

###

experiment: Selectivity index, ratio of IC50 for cytotoxicity against rat myoblast L6 cells to IC50 for antiprotozoal activity against Trypanosoma brucei rhodesiense STIB900 trypomastigotes; assay type: toxicity, cell-based; conditions: read-out: Selectivity Index
Decide by selectivity ratio: equal to or exceeding 0.9 means Satisfied, less means Not satisfied.

These solved cases illustrate the format of a correct answer.
>  <MOLECULE>
CC1=CC[C@]23CC[C@H]4C(C)(C)CCC[C@]45C[C@]24C1=C[C@H]1C(C)(C)OC(=C(C(C)C)C3=O)[C@@]14O5

>  <ASSIGNED CATEGORY>
Not satisfied

$$$$
>  <MOLECULE>
CC(C)C1=C2OC(C)(C)[C@@H]3CC4[C@H](C)[C@@H](OC(=O)CCC(=O)O)C[C@@]5(CC[C@H]6C(C)(C)CCC[C@]67C[C@]45[C@@]23O7)C1=O (some centres not stated)

>  <ASSIGNED CATEGORY>
Not satisfied

$$$$
>  <MOLECULE>
CC(C)C1=C2OC(C)(C)[C@@H]3CC4[C@H](C)[C@@H](O)C[C@@]5(CC[C@H]6C(C)(C)CCC[C@]67C[C@]45[C@@]23O7)C1=O (some centres not stated)

>  <ASSIGNED CATEGORY>
Satisfied

$$$$

Reported selectivity ratio at or above 0.9? CC(C)C1=C2OC(C)(C)[C@@H]3CC4[C@@H](C)[C@H](B(F)F)C[C@@]5(CC[C@H]6C(C)(C)CCC[C@]67C[C@]45[C@@]23O7)C1=O (some centres not stated)
Satisfied

Reported selectivity ratio at or above 0.9? "CC1=CC[C@]23CC[C@H]4C(C)(C)CCC[C@]45C[C@]24[C@@]1(O)C[C@H]1C(C)(C)OC(=C(C(C)C)C3=O)[C@@]14O5"
Not satisfied

Reported selectivity ratio at or above 0.9? "CC1=C2C[C@H]3C(C)(C)OC4=C(C(C)C)C(=O)[C@@]5(C=C1)CC[C@H]1C(C)(C)CCC[C@]16C[C@]25[C@@]43O6"
Not satisfied

###

assay: Selectivity index, ratio of IC50 for cytotoxicity against rat myoblast L6 cells to IC50 for antileishmanial activity against axenically grown amastigotes Leishmania donovani MHOM-ET-67/L82; assay type: toxicity, cell-based; details: read-out: Selectivity Index
Simple rule here: selectivity ratio less than 3 is yes (1), otherwise no (0).

>  <COMPOUND>
CC1=C2C[C@H]3C(C)(C)OC4=C(C(C)C)C(=O)[C@@]5(C=C1)CC[C@H]1C(C)(C)CCC[C@]16C[C@]25[C@@]43O6

>  <ASSIGNED CATEGORY>
yes (1)

$$$$

selectivity ratio under 3? Item: "CC1=CC[C@]23CC[C@H]4C(C)(C)CCC[C@]45C[C@]24[C@@]1(O)C[C@H]1C(C)(C)OC(=C(C(C)C)C3=O)[C@@]14O5"
yes (1)

selectivity ratio under 3? Item: CC(C)C1=C2OC(C)(C)[C@@H]3CC4[C@H](C)[C@@H](OC(=O)CCC(=O)O)C[C@@]5(CC[C@H]6C(C)(C)CCC[C@]67C[C@]45[C@@]23O7)C1=O (some centres not stated)
no (0)

###

assay: Selectivity index, ratio of IC50 for cytotoxicity against rat myoblast L6 cells to IC50 for antiplasmodial activity against Plasmodium falciparum NF54 intraerythrocytic forms; type: toxicity, cell-based; conditions: read-out: Selectivity Index
Decide by selectivity ratio: equal to or exceeding 40 means Criterion met, less means Criterion not met.

These solved cases illustrate the format of a correct answer.
>  <COMPOUND>
CC(C)C1=C2OC(C)(C)[C@@H]3CC4[C@@H](C)[C@H](O)C[C@@]5(CC[C@H]6C(C)(C)CCC[C@]67C[C@]45[C@@]23O7)C1=O (some centres not stated)

>  <ASSIGNED CATEGORY>
Criterion not met

$$$$
>  <COMPOUND>
CC(C)C1=C2OC(C)(C)[C@@H]3CC4[C@@H](C)[C@H](B(F)F)C[C@@]5(CC[C@H]6C(C)(C)CCC[C@]67C[C@]45[C@@]23O7)C1=O (some centres not stated)

>  <ASSIGNED CATEGORY>
Criterion met

$$$$
>  <COMPOUND>
CC(C)C1=C2OC(C)(C)[C@@H]3CC4[C@H](C)[C@@H](O)C[C@@]5(CC[C@H]6C(C)(C)CCC[C@]67C[C@]45[C@@]23O7)C1=O (some centres not stated)

>  <ASSIGNED CATEGORY>
Criterion met

$$$$
>  <COMPOUND>
CC1=CC[C@]23CC[C@H]4C(C)(C)CCC[C@]45C[C@]24C1=C[C@H]1C(C)(C)OC(=C(C(C)C)C3=O)[C@@]14O5

>  <ASSIGNED CATEGORY>
Criterion not met

$$$$
>  <COMPOUND>
CC(C)C1=C2OC(C)(C)[C@@H]3CC4[C@H](C)[C@@H](OC(=O)CCC(=O)O)C[C@@]5(CC[C@H]6C(C)(C)CCC[C@]67C[C@]45[C@@]23O7)C1=O (some centres not stated)

>  <ASSIGNED CATEGORY>
Criterion not met

$$$$

Reported selectivity ratio at or above 40? "CC1=CC[C@]23CC[C@H]4C(C)(C)CCC[C@]45C[C@]24[C@@]1(O)C[C@H]1C(C)(C)OC(=C(C(C)C)C3=O)[C@@]14O5"
Criterion met

Reported selectivity ratio at or above 40? "CC1=C2C[C@H]3C(C)(C)OC4=C(C(C)C)C(=O)[C@@]5(C=C1)CC[C@H]1C(C)(C)CCC[C@]16C[C@]25[C@@]43O6"
Criterion met
